Entry source: ChEMBL document CHEMBL1156946

Target: Bombesin receptor subtype-3 (Homo sapiens, UniProt P32247)
Sequence (P32247 whole entry): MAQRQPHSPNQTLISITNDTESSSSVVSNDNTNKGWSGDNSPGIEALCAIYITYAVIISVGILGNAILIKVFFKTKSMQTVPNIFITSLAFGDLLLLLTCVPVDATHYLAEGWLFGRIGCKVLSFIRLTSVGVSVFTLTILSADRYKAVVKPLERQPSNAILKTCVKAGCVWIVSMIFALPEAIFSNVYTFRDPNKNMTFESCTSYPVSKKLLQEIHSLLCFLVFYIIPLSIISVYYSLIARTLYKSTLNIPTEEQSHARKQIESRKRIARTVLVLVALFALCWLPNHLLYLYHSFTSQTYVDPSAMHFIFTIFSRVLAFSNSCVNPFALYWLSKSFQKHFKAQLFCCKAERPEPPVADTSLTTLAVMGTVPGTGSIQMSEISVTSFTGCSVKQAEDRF
Assay: Agonist activity at human BRS-3 expressed in HEK293 cells coexpressing AEQ over 10 mins by aequorin bioluminescence assay
Hi there, I'd appreciate the recorded pEC50 for every entry that follows.
Convention used: pEC50 is expressed as -log10 of the molar concentration.

Requested read-out: pEC50. Entry: CCC(C)(C)Cc1c[nH]c(CCc2ccc(-n3cccn3)cc2)n1
6.87

For the compound CCC(C)(C)Cc1c[nH]c(CCc2ccc(-c3cnccn3)cc2)n1 , what pEC50 is on record?
6.37

I am curious: what pEC50 value has been reported for CCC(C)(C)Cc1cnc(CCc2ccc(-c3ccncc3)cc2)[nH]1 ?
6.52

Entry under review: CCC(C)(C)Cc1cnc(CCc2ccc(-c3csnn3)cc2)[nH]1 . Reported pEC50?
6.27

Requested field: pEC50. Item: CCC(C)(C)Cc1c[nH]c(CCc2ccc(-c3cccc(C(=O)O)n3)cc2)n1
5.28

Could you tell me which pEC50 is on file for CCC(C)(C)Cc1cnc(CCc2ccc(N3CCCCC3)cc2)[nH]1 ?
6.77

What value of measured pEC50 is listed for CCC(C)(C)Cc1cnc(CCc2ccc(-c3cccnc3)cc2)[nH]1 ?
6.88

Query: pEC50; subject: CCC(C)(C)Cc1c[nH]c(CCc2ccc(-n3ncnn3)cc2)n1
6.37

Which pEC50 is reported for this compound? CCC(C)(C)Cc1cnc(CCc2ccc(-c3ccc(F)cn3)cc2)[nH]1
7.18

Form field: reported pEC50 of CCC(C)(C)Cc1c[nH]c(CCc2ccc(-c3cccc(N)n3)cc2)n1
7.43

For the compound CCC(C)(C)Cc1c[nH]c(CCc2ccc(-c3cccc(O)n3)cc2)n1 , what pEC50 is on record?
6.77

What value of pEC50 has been recorded for this entry: CCC(C)(C)Cc1cnc(CCc2ccc(-n3cncn3)cc2)[nH]1
6.24

Which pEC50 reading was recorded for the compound O=C(O)c1cc(F)c(F)cc1-c1ccc(CCc2nc(CC3CCCCC3)c[nH]2)cc1 ?
7.20

Returns the measured pEC50 for the input compound. Input: CCC(C)(C)Cc1cnc(CCc2ccc(-c3cccnc3C(=O)O)cc2)[nH]1
5.90

Which measured pEC50 value corresponds to CCC(C)(C)Cc1c[nH]c(CCc2ccc(-c3cccc(C)n3)cc2)n1 ?
6.98

Using the record for c1ccc(-c2ccc(CCc3nc(CC4CCCC4)c[nH]3)cc2)nc1 , report its pEC50.
6.37

Need pEC50 of CCC(C)(C)Cc1c[nH]c(CCc2ccc(-c3ccns3)cc2)n1 , thanks.
7.20

What does the data say about its pEC50? Entry: CCC(C)(C)Cc1cnc(CCc2ccc(-c3cccc(C#N)n3)cc2)[nH]1
6.71

Query (compound): CCC(C)(C)Cc1cnc(CCc2ccc(-c3cnsc3)cc2)[nH]1 ; field requested: pEC50
7.36

Sample CCC(C)(C)Cc1cnc(CCc2ccc(-n3ccnn3)cc2)[nH]1 — what was its pEC50?
6.19
